composite z-score by entry:
Target: Torsin-1A (Homo sapiens) (UniProt O14656)
Sequence (O14656 whole entry, looked up): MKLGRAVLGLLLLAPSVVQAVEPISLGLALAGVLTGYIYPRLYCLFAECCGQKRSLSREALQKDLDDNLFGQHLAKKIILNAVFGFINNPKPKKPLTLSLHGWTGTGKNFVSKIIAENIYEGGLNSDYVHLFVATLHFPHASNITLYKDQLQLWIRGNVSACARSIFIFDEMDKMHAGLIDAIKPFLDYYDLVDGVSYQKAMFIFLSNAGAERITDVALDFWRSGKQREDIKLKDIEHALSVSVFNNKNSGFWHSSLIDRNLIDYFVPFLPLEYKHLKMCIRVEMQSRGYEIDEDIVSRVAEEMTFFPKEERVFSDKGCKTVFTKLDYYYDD
Test: torsin A binders from cell lysate, primary screen, small-molecule microarray, wild-type, 635/667 nm (AID 1149)
Settings: COS7 hTOR1A-WT lysate, 635 nm fluorescence, higher = more signal

compound	composite z-score
CCOC(=O)C[C@H]1[C@H](OC(=O)c2ccccc2-c2ccccc2)[C@@H](NC(=O)c2ccc3ccccc3n2)c2cc(OCCCO)ccc2N1C(=O)c1ccccc1	-0.0653
Cc1ccc(S[C@]2(C(=O)NC(C)C)CC(=O)N(C(C)C)[C@@H]2c2ccc(CO)cc2I)cc1	-1.07
COC(=O)[C@@]1(Cc2ccccc2)[C@H]2c3cc(C(=O)N4CCCC4)n(CCSCCO)c3C[C@H]2CN1C(=O)c1ccccc1	0.424
COc1cc(NN2C(C(O)C3CCCCC3)C=CC3C(=O)N(c4ccccc4)C(=O)C32)cc(OC)c1OC (stereo not drawn)	-0.224
COc1ccc(C(=O)Nc2cccc(CN3C(=O)[C@@]4(O[C@@H](CC(=O)N(CCO)Cc5ccccc5)[C@H]([Si](C)(C)c5ccc(OC)cc5)[C@H]4C)c4ccccc43)c2)cc1	0.479
Nc1cc(Br)ccc1C(=O)O	0.136
CC(C)C(=C=CC[C@@H](O)c1cccc(OCCO)c1)C[C@@H](O)COCc1ccccc1	-0.134
O=C1[C@@H]2[C@@H](CC(COc3ccccc3)=C3[C@@H](CCc4ccccc4)OB(O)C[C@@H]32)C(=O)N1Cc1ccccc1	0.0258
